# Tested on: NIH:3T3
# Assay type: cell-based, mouse
# CONDITIONS USED: non cancerous cell line 3T3
# Protocol: The breast cancer cell lines studied were MDA-MB435S (estrogen receptor alpha negative), MCF-7 and T47D (estrogen receptor alpha positive), ovarian cancer cell lines (OVCAR-3 and SKOV-3), prostate cancer (LNCaP), the non-malignant breast epithelial cell line MCF-10A and the mouse fibroblast cell line NIH:3T3. […] Data were calculated as fraction of absorption in TritonX-100™ containing wells representing 100% cell death versus 0% cell death in saline containing wells. […]
MEASURED PARAMETER: IC50

Req: Find IC50 (NIH:3T3) for the entry KFAKFAKKFAKFAKKFAKQHWSYGLRPG [Phor18-LHRH]
Resp: > 10 µM
